# Test system: L1210 leukemia ip in BDF1 mice, survival T/C
# EXPERIMENTAL_PROTOCOL: NCI In Vivo Anticancer Drug Screen. Data for tumor model L1210 Leukemia (intraperitoneal) in B6D2F1 (BDF1) mice
# CONDITIONS_USED: endpoint: mean survival time; dose: 400.0 mg/kg/injection; schedule: Q01DX009 (ip); vehicle: saline with Tween-80; higher = longer survival
Inconclusive results and toxic doses are left out.
QUANTITY_NAME: T/C

Examples with their reported T/C follow.
| SMILES_RECORD | T/C |
| --- | --- |
| FC(F)(F)c1cccc(NC(=S)Nc2ccccc2S)c1 | 124 % of control |
| F[Si](c1ccccc1)(c1ccccc1)c1cccc2ccccc12 | 93 % of control |
| CCOC(=O)N(CCCl)C(=O)C(C)C | 94 % of control |

[Q] Could you please provide reported T/C for O=[N+]([O-])c1ccc(S(=O)(=O)Nc2ccccc2-c2ccccc2)cc1 ? Thanks!
[A] 96 % of control

[Q] Dear colleague, please send me the reported T/C for COC(=N)Cc1ccc(OC)c(OC)c1 when you can.
[A] 92 % of control

[Q] Give a short answer stating reported T/C for COc1cc(NC(=O)Oc2ccc([N+](=O)[O-])cc2)ccc1S(=O)(=O)F .
[A] 103 % of control

[Q] Specify T/C for COc1ccc(S(=O)(=O)Nc2cc(Cl)ccc2Cl)cc1 and stop.
[A] 95 % of control

[Q] Give the reported value of T/C for this record: O=C(Nc1ccccc1C(F)(F)F)c1ccc(C(=O)Nc2ccccc2C(F)(F)F)cc1
[A] 100 % of control
